- measured on: Muscarinic acetylcholine receptor M5 (Homo sapiens)
- Sequence (P08912 whole entry): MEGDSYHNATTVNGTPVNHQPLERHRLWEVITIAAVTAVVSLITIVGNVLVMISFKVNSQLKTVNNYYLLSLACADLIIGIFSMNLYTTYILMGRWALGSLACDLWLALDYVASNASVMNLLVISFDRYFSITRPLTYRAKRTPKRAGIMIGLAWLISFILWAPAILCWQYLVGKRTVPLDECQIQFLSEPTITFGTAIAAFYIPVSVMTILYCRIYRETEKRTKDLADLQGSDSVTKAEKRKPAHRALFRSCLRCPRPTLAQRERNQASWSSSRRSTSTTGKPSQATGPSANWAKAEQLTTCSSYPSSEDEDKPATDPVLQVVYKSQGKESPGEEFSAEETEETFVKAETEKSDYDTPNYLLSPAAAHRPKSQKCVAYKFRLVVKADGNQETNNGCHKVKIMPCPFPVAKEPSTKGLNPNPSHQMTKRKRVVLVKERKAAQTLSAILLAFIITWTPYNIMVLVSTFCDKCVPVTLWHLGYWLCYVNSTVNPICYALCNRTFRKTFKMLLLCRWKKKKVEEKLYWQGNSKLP
measured attribute: Ki (µM)
Give your result in µM as a bare value.

Challenge: For the molecule COc1ccccc1CNCCCCCCN1CCC(CCC2CCN(CCCCCCNCc3ccccc3OC)CC2)CC1 , give its reported Ki.
Response given: 0.17
